meta.source: patent US20050209278A1

# Ki listing for each entry below
Biological target: MMP-13 (Homo sapiens)
Construct: made in house; host or cells: baculovirus / insect cells
Experiment: In vitro MMP inhibition, Ki determination (fluorogenic substrate II)
Type: biochemical
Conditions: value outside parentheses; read-out: MMP-13 Ki
Number only, in nM; omit the unit.

What value of Ki has been recorded for this entry: `CCCCCC/C=C/C1CCN(S(=O)(=O)C2(C(=O)NO)CCOCC2)CC1`
0.58

Also check `O=C(NO)C1(S(=O)(=O)N2CCC(c3ccc(CCCC(F)(F)F)cn3)CC2)CCOCC1`
0.302

Now the same for `COCCN1CCC(C(=O)NO)(S(=O)(=O)N2CCC(c3ccc(CCC(F)(F)F)cc3)CC2)CC1`
0.355

Same question for `CCCCOc1ccc(N2CCN(S(=O)(=O)C3(C(=O)NO)CCN(c4ccc(Cl)cc4)CC3)CC2)cc1` please.
12.9

Moving on to the next compound: `CCCCOc1ccc(N2CCN(S(=O)(=O)C3(C(=O)NO)CCN(CCOC)CC3)CC2)nc1`
0.09

Please answer likewise for `CCCCOc1ccc(N2CCN(S(=O)(=O)C3(C(=O)NO)CCNCC3)CC2)cc1`
2.49

Also need `O=C(NO)C1(S(=O)(=O)N2CCN(c3ccc(CCC(F)(F)C(F)(F)F)cc3)CC2)CCN(C2CC2)CC1` , thanks.
0.489

Please give the result for `COCCN1CCC(C(=O)NO)(S(=O)(=O)N2CCC(c3ccc(CCCC(F)(F)F)cc3)CC2)CC1` too.
0.268

Param item: `O=C(NO)C1(S(=O)(=O)N2CCC(c3ccc(OC(F)(F)C(F)(F)F)cc3)CC2)CCOCC1`
5.08

Moving on to `O=C(NO)C1(S(=O)(=O)N2CCC(c3ccc(CCCC(F)(F)F)cc3)CC2)CCOCC1`
0.378

---
Recorded Ki for `O=C(NO)C1(S(=O)(=O)N2CCN(c3ccc(-c4ccc(Cl)c(Cl)c4)cc3)CC2)CCOCC1` , please?
0.71

Would you mind doing `CCCCOc1ccc(N2CCN(S(=O)(=O)C3(C(=O)NO)CCN(C(=O)CO)CC3)CC2)cc1` as well?
0.452

// next record `CCCCc1cnc(N2CCN(S(=O)(=O)C3(C(=O)NO)CCN(CCOC)CC3)CC2)nc1`
2.75

Now give it for `Cc1cccc(-c2cnc(N3CCN(S(=O)(=O)C4(C(=O)NO)CCOCC4)CC3)s2)c1` too.
4.16

Also `O=C(NO)C1(S(=O)(=O)N2CCN(c3ccc(SC(F)(F)F)cc3)CC2)CCS(=O)(=O)CC1` , if possible.
30.5

Now consider O=C(NO)C1(S(=O)(=O)N2CCN(c3ccc(OCCCC(F)(F)F)cc3)CC2)CC(O)C1 (stereo not shown) and answer again.
3.89

Query `O=C(NO)C1(S(=O)(=O)N2CCN(c3ncc(-c4ccc(-c5ccccc5)cc4)s3)CC2)CCOCC1` next
0.426

What do you have for `CCCCOc1ccc(N2CCN(S(=O)(=O)C3(C(=O)NO)CCN(C(N)=O)CC3)CC2)cc1` ?
0.357

Now the same for `CCCCOc1ccc(N2CCN(S(=O)(=O)C3(C(=O)NO)CCN(c4ccc(O)nn4)CC3)CC2)cc1`
0.19

Would you mind doing `CCc1ccc(C2CCN(S(=O)(=O)C3(C(=O)NO)CCN(CCOC)CC3)CC2)s1` as well?
19.6

Try the compound `O=C(NO)C1(S(=O)(=O)N2CCN(c3ccc(OCC4CC4)c(F)c3)CC2)CCOCC1`
1.12

Same question, `CCCCOc1ccc(N2CCN(S(=O)(=O)C3(C(=O)NO)CCN(C(=O)N(C)C)CC3)CC2)cc1` this time
0.1

Would you kindly repeat that for `CCCCOc1ccc(N2CCN(S(=O)(=O)C3(C(=O)NO)CCN(C(=O)CC(F)(F)F)CC3)CC2)cc1` ?
0.637
